Test system: PRKR
Construct: gene EIF2AK2
Conditions: concentration: 1 μM,replicates: in singlicate; n = 1;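 further: KINOMEscan kinase panel screen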
Consider the following molecules and their measured %Inh readings.
Enter your answer as a number in %; do not include the unit.

Recorded results for 8 molecules are shown here.
1) C[C@@H]1CNc2c(sc3ccc4nc(-c5ccncc5)ccc4c23)C(=O)N1 ... 0
2) CNC(=O)c1ccccc1Nc1nc(Nc2cccc(CS(C)(=O)=O)c2)ncc1C.O=CO ... 28
3) COc1cccc(OC)c1C(=O)Nc1cccc(-c2nn3ccccc3c2-c2ccnc(Nc3cccc(F)c3)n2)c1 ... 0
4) OCCn1cc(-c2cnc3nnn(Cc4ccc5ncccc5c4)c3n2)cn1 ... 0
5) CS(=O)(=O)c1cccc(CNc2nc(Nc3ccc4c(c3)[C@@H]3C[C@@H]4CNC3=O)ncc2C(F)(F)F)c1 ... 0
6) COc1cc2nccc(Nc3ccc(Oc4ccccc4)cc3)c2cc1OC.Cl ... 0
7) FC(F)(F)c1cc(Br)cc(Nc2nccc(-c3cnn4ncccc34)n2)c1 ... 0
8) COC(=O)c1cccc(NC(=O)NC2CCN(c3ccnc(NCc4ccc(F)cc4)n3)CC2)c1 ... 0

Enter reported %Inh observed with PRKR for `CS(=O)(=O)Nc1ccc(-c2ccnc3[nH]ccc23)cc1`
41

Missing value: %Inh, PRKR, entry CCNCC(Cc1ccccc1)NC(=O)c1cc(Br)c(-c2ccnc3[nH]ccc23)s1.Cl.Cl (centres unmarked) . Fill in?
22

GET /values?readout=%Inh&system=PRKR&item= `CCN1CCN(CCCC(=O)Nc2n[nH]c3nc(-c4ccc(O)cc4)c(Br)cc23)CC1`
0

Item: `COc1cc2ncn(-c3cc(OCC4CCCCC4)c(C(N)=O)s3)c2cc1OC` Test system: PRKR Read-out: %Inh Value: ?
0

I'm curious: which %Inh was measured for COc1ccc(Nc2nccc(N3CCC(NC(=O)c4cccc(C#N)c4)C3)n2)cc1 (centres unmarked) tested on PRKR?
0

Hi! What's the reported %Inh for `Cl.Nc1n[nH]c2cc(-c3ccccn3)ccc12` on PRKR?
0

* * *

System: PAK2
Settings: concentration: 1 μM,replicates: in singlicate; n = 1
Is %Inh at least 5%? Then y. If not, n.

1) Cn1ccc2ncnc(Oc3ccc(NC(=O)Nc4cccc(C(F)(F)F)c4)c(F)c3)c21 ... y
2) CS(=O)c1ccc(-c2coc3ccc(-c4n[nH]c(=O)o4)cc23)cc1 (centres unmarked) ... y
3) CNC(=O)c1ccccc1Nc1nc(Nc2cccc(CS(C)(=O)=O)c2)ncc1C.O=CO ... y

Determine whether this compound has %Inh no lower than 5%: `Cc1ccn2nc(-c3ccc(F)cc3)c(-c3ccncc3)c2c1.Cl`
n

* * *

Tested on: BLK
Conditions: concentration: 1 μM,replicates: in singlicate; n = 1
measure: %Inh (%)
Give just the numeric value; % need not be written.

Recorded %Inh of `Cc1ccc(CC(=O)N2CCc3cc(-c4cn(C)c5ncnc(N)c45)ccc32)cc1` , please.
31

Look up %Inh: `O=C(Nc1ccccc1)c1cccc(Oc2ccc3nccn3n2)c1`
9

Recorded %Inh for Cc1nnc(-c2ccc3occ(-c4ccc(S(C)=O)cc4)c3n2)o1 (stereo not shown) , please?
0

Form field: reported %Inh of `COC(=O)c1cccc(NC(=O)NC2CCN(c3ccnc(NCc4ccc(F)cc4)n3)CC2)c1`
24

What value of %Inh has been recorded for this entry: `C[C@@H](Oc1cc(-n2cnc3ccc(-c4ccncc4)cc32)sc1C(N)=O)c1ccccc1Cl`
31

Recorded %Inh for `COc1cccc(OC)c1C(=O)Nc1cccc(-c2nn3ccccc3c2-c2ccnc(Nc3cccc(F)c3)n2)c1` , please?
41

Could you tell me which %Inh is on file for `C[C@@H]1CNc2c(sc3ccc4nc(-c5ccc(O)cc5)ccc4c23)C(=O)N1` ?
0

Give the measured %Inh of `Cn1ccc2ncnc(Oc3ccc(NC(=O)Nc4cccc(C(F)(F)F)c4)c(Cl)c3)c21` .
6

Fill blank: measured %Inh of the molecule `OCCn1cc(-c2cnc3nnn(Cc4ccc5ncccc5c4)c3n2)cn1` is ____.
4

src = paper PMC5540273
